# credit: ChEMBL document CHEMBL4808148

target: Protein deacetylase HDAC6 (Homo sapiens) (UniProt Q9UBN7); conditions: at 10 µM
Sequence (Q9UBN7 whole entry): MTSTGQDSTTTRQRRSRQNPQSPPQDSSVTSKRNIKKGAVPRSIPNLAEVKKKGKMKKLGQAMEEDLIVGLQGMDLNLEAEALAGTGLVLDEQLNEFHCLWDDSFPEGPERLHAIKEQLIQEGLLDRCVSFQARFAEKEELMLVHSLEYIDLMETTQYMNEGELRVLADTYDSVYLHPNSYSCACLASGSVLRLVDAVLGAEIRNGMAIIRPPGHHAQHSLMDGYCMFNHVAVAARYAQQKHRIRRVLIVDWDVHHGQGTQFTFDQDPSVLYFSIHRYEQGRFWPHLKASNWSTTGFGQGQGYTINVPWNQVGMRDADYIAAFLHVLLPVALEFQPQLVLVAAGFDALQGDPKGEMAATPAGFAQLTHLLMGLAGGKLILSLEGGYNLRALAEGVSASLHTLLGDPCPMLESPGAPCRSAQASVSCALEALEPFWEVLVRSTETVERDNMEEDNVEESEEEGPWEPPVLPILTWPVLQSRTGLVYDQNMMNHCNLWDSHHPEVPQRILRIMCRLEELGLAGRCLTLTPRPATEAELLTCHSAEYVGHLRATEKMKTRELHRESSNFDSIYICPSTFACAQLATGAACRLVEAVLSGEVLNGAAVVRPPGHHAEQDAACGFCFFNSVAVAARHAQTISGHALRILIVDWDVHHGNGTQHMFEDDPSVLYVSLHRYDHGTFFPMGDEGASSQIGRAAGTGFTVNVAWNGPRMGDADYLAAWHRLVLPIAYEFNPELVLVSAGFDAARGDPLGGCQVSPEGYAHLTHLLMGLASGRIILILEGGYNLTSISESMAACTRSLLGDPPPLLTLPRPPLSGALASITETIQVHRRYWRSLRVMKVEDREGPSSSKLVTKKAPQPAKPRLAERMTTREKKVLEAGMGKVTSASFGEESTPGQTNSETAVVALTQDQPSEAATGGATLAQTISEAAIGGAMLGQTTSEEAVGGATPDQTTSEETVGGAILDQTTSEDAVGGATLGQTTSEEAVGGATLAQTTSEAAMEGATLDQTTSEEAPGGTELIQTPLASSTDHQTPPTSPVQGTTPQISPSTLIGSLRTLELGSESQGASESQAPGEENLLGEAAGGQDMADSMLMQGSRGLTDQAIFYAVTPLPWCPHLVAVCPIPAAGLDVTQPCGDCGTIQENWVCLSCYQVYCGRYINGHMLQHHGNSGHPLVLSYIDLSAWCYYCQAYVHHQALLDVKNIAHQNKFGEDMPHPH
In all, about 5,600 compounds went through this assay and about 390 (7%) showed an effect of 50% or more. The sample holds strong results, similar compounds and a random draw of the others, so the mix is not that of the screen.
attributeMeasured: inhibition

> print(dat)
                                    compound                           systemundertest  observedresult
 1  Cc1ccccc1/N=N/c1ccc(/N=N/c2c(O)ccc3ccccc23)c(C)c1  Protein deacetylase HDAC6 (Homo sapiens) (UniProt Q9UBN7)             12%
 2  O[C@@H]1[C@H](O)[C@@H](CCl)O[C@H]1n1cnc2c(NC3CC4CCC3C4)ncnc21 (mixture of isomers)  Protein deacetylase HDAC6 (Homo sapiens) (UniProt Q9UBN7)           17.3%
 3      CCCC1(CCC)CCC2(CCN(CCCN(CC)CC)C2)CC1  Protein deacetylase HDAC6 (Homo sapiens) (UniProt Q9UBN7)           -1.4%
 4  CC(C)c1c(NC(=O)Nc2ccc(Cl)cc2)c(=O)n(-c2ccccc2)n1C  Protein deacetylase HDAC6 (Homo sapiens) (UniProt Q9UBN7)          -4.84%
 5                    Nc1nc2c(ccc3ccccc32)s1  Protein deacetylase HDAC6 (Homo sapiens) (UniProt Q9UBN7)           67.3%
 6  O=c1[nH]nc2c3c(cccc13)N=C(CN1Cc3ccccc3C1)N2  Protein deacetylase HDAC6 (Homo sapiens) (UniProt Q9UBN7)          -8.46%
 7  CCCn1c(=O)[nH]c2nc(-c3ccc(S(=O)(=O)N4CCN(c5ccc(Cl)cc5)CC4)cc3)[nH]c2c1=O  Protein deacetylase HDAC6 (Homo sapiens) (UniProt Q9UBN7)           3.66%
 8          CN1CC(=O)N=C1NC(=O)Nc1cccc(Cl)c1  Protein deacetylase HDAC6 (Homo sapiens) (UniProt Q9UBN7)           89.3%
 9  COc1ccc(C(=O)NCc2cccnc2)cc1C(=O)NCc1cccnc1  Protein deacetylase HDAC6 (Homo sapiens) (UniProt Q9UBN7)           11.5%
10  CC(C)C[C@H](NC(=O)N1CCCCCC1)C(=O)N[C@H](Cc1cn(C)c2ccccc12)C(=O)N[C@H](Cc1ccccn1)C(=O)O  Protein deacetylase HDAC6 (Homo sapiens) (UniProt Q9UBN7)          -8.82%
11  Cc1cc(O)c(C(=O)N[C@@H](C(=O)N[C@@H]2C(=O)N3C(C(=O)O)=C(CSc4nnnn4C)CS[C@H]23)c2ccc(O)cc2)cn1  Protein deacetylase HDAC6 (Homo sapiens) (UniProt Q9UBN7)             29%
12  CN(CC[C@@H](Oc1ccc(-c2ccccc2)cc1)c1ccc(F)cc1)CC(=O)O  Protein deacetylase HDAC6 (Homo sapiens) (UniProt Q9UBN7)          -3.28%
13  O=C(Nc1ccc(Cl)cc1)Nc1cccc(-c2cccc(N3CCCC3)n2)c1  Protein deacetylase HDAC6 (Homo sapiens) (UniProt Q9UBN7)           20.6%
14  CCN(CC)CCOc1ccc(Nc2ncc3cc(-c4c(Cl)cccc4Cl)c(=O)n(C)c3n2)cc1  Protein deacetylase HDAC6 (Homo sapiens) (UniProt Q9UBN7)           12.6%
15          CCN(CC)CCOC(=O)C1(c2ccccc2)CCCC1  Protein deacetylase HDAC6 (Homo sapiens) (UniProt Q9UBN7)           12.3%
